molecular target: T1, recombinant human PCSK9-His protein (Immunogen A) (human, UniProt Q8NBP7 31-692, limits assumed, biotinylated in the ELISA assays); assay: ELISA; antibody 66.67 nM
T1 construct: also called hPCSK9-His; His-tagged hPCSK9; not shown: His tag
recorded-endpoint: OD450 nm (OD450 nm)
The figure you give is taken to be in OD450 nm; do not add the unit.

Per the record, 139G1C5, fully human anti-PCSK9 antibody (antibody, human IgG1, V domains shown) VH: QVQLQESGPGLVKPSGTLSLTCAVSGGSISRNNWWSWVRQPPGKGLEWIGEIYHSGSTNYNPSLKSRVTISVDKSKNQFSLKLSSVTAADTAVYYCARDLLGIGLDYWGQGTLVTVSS VL: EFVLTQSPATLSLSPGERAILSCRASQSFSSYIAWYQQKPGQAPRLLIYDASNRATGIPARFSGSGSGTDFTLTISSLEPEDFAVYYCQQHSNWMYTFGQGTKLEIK has OD450 nm of 3.04
